Recorded values, source ChEMBL document CHEMBL1136369.

- tested-target: Neuronal acetylcholine receptor; alpha4/beta2 (Rattus norvegicus, UniProt P09483+P12390)
- Sequence (P09483 whole entry): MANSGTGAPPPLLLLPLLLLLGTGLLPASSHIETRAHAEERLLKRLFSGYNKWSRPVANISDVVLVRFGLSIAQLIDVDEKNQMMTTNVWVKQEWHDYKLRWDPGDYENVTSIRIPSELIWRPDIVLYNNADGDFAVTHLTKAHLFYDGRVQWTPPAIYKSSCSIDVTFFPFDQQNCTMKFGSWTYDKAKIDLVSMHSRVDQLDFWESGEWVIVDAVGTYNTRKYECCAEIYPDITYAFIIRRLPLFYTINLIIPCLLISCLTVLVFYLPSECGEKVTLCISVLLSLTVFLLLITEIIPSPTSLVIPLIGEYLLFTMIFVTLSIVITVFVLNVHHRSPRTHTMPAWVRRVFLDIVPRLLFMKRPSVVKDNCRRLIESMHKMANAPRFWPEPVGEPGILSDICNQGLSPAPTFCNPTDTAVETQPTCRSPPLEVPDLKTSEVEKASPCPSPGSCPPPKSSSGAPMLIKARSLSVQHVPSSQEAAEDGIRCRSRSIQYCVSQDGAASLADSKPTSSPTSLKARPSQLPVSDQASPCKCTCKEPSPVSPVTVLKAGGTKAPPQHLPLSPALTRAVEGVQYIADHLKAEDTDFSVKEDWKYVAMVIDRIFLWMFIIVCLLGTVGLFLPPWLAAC
- Sequence (P12390 whole entry): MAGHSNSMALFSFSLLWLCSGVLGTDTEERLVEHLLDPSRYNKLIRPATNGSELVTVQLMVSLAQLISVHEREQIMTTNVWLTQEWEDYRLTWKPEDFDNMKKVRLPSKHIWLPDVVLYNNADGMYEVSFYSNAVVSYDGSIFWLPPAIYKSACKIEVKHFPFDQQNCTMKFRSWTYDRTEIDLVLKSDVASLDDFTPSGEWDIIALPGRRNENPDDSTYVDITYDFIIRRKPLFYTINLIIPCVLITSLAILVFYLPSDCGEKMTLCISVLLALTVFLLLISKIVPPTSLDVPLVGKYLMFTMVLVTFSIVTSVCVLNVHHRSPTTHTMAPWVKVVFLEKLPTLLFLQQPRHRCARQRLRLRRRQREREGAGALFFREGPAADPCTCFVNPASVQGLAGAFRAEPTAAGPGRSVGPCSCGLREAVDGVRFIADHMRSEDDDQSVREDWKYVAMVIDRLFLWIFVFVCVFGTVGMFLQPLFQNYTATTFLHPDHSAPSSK
- procedure-summary: Binding affinity towards alpha4-beta2 measured by using the inhibition of [3H]NIC binding to rat striatal membrane
Quick reference for Ki among some compounds
measured-attribute: Ki

[[record]]
compound = "c1cncc(CN2CCN(C[C@@H]3CCCN3)CC2)c1"
measurement = "> 100 µM"

[[record]]
compound = "c1cc(CN2CCN(CC3CCCCN3)CC2)ccn1 (racemic)"
measurement = "> 100 µM"

[[record]]
compound = "c1cncc(CN2CCN(CC3CCCCN3)CC2)c1 (racemic)"
measurement = "> 100 µM"

[[record]]
compound = "O=C([C@@H]1CCCN1)N1CCN(Cc2ccccn2)CC1"
measurement = "> 100 µM"

[[record]]
compound = "O=C(C1CCCCN1)N1CCN(Cc2ccccn2)CC1 (racemic)"
measurement = "> 100 µM"

